Parameter IC50: see the listing below.
# target or system: Xanthine oxidase (Homo sapiens (Human), UniProt P47989)
# Sequence (P47989 whole entry, species assumed): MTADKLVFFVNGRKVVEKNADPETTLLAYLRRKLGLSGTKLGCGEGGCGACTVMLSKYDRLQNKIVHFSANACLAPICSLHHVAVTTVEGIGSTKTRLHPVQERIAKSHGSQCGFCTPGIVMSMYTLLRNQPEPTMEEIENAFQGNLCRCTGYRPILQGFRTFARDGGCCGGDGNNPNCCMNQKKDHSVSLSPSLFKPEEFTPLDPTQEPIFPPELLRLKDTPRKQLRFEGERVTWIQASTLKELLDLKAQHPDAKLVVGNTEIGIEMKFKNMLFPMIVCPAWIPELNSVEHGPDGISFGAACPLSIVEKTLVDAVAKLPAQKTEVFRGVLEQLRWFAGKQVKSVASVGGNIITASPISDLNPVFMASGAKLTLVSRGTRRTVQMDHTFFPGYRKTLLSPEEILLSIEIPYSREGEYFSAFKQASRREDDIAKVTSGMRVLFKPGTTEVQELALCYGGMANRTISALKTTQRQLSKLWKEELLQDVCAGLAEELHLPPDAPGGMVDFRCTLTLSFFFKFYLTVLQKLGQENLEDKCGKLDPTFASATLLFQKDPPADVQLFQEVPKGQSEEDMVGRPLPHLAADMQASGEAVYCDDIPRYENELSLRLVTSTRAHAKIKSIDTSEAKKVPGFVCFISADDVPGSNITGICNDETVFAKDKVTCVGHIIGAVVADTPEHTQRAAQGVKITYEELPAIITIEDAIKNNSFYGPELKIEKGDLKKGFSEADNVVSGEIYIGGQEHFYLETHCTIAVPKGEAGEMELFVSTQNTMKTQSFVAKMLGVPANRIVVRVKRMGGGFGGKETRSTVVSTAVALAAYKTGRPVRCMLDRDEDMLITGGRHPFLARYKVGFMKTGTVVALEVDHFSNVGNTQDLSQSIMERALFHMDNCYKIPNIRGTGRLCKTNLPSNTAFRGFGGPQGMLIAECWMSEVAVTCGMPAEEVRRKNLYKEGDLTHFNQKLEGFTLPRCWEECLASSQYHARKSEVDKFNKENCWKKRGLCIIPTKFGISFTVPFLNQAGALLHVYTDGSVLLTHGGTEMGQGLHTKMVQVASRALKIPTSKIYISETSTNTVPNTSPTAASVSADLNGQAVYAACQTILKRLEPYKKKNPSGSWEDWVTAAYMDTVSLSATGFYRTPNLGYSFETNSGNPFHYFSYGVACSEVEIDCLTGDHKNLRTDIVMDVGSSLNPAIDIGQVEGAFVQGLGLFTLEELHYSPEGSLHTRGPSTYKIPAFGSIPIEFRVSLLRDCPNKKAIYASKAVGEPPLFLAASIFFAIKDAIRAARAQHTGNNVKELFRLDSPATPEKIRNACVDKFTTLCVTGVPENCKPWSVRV
# procedure summary: Fluorescence-based xanthine oxidase activity assay
# Format: biochemical
recorded endpoint: IC50 (nM)

> print(dat)
                                 item.smiles  recorded.endpoint  test.value
 1  CSc1nc(O)c(C(=O)Nc2ccc3nc(-c4c[nH]nn4)ccc3c2)c(=O)[nH]1               IC50         190
 2  CC(C)Sc1nc(O)c(C(=O)Nc2ccc(-c3c[nH]nn3)cc2F)c(=O)[nH]1               IC50         100
 3  O=C(Nc1ccc(-c2c[nH]nn2)cc1)c1c(O)nc(SCC2CC2)[nH]c1=O               IC50        1140
 4  CSc1nc(O)c(C(=O)Nc2ccc(-c3c[nH]nn3)cc2F)c(=O)[nH]1               IC50         120
 5  CSc1nc(O)c(C(=O)Nc2ccc(-c3c[nH]nn3)c(F)c2)c(=O)[nH]1               IC50         210
 6  CC(C)Sc1nc(O)c(C(=O)Nc2ccc(-c3c[nH]nn3)cc2C(F)(F)F)c(=O)[nH]1               IC50          70
 7  CSc1nc(O)c(C(=O)Nc2ccc(-c3c[nH]nn3)cc2OC(F)F)c(=O)[nH]1               IC50          60
 8  CSc1nc(O)c(C(=O)Nc2ccc(-c3c[nH]nn3)cc2C#N)c(=O)[nH]1               IC50          40
 9  CSc1nc(O)c(C(=O)Nc2ccc(-c3c[nH]nn3)nc2)c(=O)[nH]1               IC50         377
10  O=C(Nc1ncc(-c2c[nH]nn2)s1)c1c(O)[nH]c(=O)[nH]c1=O               IC50        5300
11  CN(C)CCSc1nc(O)c(C(=O)Nc2ccc(-c3c[nH]nn3)cc2F)c(=O)[nH]1               IC50         206
12  CC(C)CSc1nc(O)c(C(=O)Nc2ccc(-c3c[nH]nn3)cc2)c(=O)[nH]1               IC50          40
13  CCSc1nc(O)c(C(=O)Nc2ccc(-c3nn[nH]n3)cc2)c(=O)[nH]1               IC50         200
14  CSc1nc(O)c(C(=O)Nc2c(F)cc(-c3c[nH]nn3)cc2F)c(=O)[nH]1               IC50         180
15  CSc1nc(O)c(C(=O)Nc2ccc(-c3c[nH]nn3)c(F)c2F)c(=O)[nH]1               IC50         103
16  CSc1nc(O)c(C(=O)Nc2ccc(-c3c[nH]nn3)cc2OC(F)(F)F)c(=O)[nH]1               IC50          60
17  CSc1nc(O)c(C(=O)Nc2ncc(-c3c[nH]nn3)cc2C(F)(F)F)c(=O)[nH]1               IC50          60
18  CC(C)Sc1nc(O)c(C(=O)Nc2ccc(-c3c[nH]nn3)c(F)c2)c(=O)[nH]1               IC50         660
